src = ChEMBL document CHEMBL1129210

pIC50 reference
MEASUREMENT TARGET: Epidermal growth factor receptor (Homo sapiens, UniProt P00533)
Sequence (P00533 whole entry): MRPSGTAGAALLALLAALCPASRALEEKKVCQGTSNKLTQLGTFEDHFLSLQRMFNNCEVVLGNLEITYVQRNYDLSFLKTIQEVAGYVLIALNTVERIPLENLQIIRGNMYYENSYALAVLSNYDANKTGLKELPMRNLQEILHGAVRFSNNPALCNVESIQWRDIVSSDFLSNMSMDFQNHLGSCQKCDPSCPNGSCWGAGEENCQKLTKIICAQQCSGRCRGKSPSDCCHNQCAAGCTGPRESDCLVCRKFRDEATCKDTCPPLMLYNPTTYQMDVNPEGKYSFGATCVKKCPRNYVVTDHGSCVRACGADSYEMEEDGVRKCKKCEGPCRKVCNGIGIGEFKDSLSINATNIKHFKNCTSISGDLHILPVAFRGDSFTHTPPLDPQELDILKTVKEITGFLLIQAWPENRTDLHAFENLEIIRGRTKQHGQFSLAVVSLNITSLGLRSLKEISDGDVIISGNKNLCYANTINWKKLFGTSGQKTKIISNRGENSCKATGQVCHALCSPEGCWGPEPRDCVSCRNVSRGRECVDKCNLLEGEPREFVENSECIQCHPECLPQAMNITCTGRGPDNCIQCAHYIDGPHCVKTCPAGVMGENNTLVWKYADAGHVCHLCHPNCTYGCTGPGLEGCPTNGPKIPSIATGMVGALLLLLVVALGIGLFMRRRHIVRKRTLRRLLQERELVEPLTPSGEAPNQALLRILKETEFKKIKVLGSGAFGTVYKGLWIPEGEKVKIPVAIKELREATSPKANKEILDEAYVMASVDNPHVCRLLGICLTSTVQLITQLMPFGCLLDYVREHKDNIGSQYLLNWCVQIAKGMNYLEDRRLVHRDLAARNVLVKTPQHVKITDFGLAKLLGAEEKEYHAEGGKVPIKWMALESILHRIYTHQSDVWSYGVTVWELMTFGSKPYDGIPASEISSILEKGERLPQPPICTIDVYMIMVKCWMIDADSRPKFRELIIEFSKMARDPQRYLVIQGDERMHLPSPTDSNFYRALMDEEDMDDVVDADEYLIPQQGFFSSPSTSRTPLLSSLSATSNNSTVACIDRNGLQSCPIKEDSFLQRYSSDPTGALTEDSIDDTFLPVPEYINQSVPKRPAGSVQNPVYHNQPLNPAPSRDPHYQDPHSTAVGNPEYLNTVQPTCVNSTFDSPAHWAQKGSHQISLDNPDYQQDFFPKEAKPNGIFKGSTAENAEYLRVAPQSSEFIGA
pIC50: −log10 of the molar value.
REPORTED PROPERTY: pIC50

COc1cc2ncnc(N3CCc4ccccc43)c2cc1OC = 6.09
COc1cc2ncnc(/N=N/c3ccc(F)c(Cl)c3)c2cc1OC = 6.14
COc1cc2ncnc(Nc3nnc4ccccc4n3)c2cc1OC = 6.09
COc1cc2ncnc(Nc3cncc4ccccc34)c2cc1OC = 8.19
COc1cc2ncnc(NC3CCc4ccccc43)c2cc1OC (stereo unspecified) = 6.04
COc1cc2ncnc(NC3CC3c3ccccc3)c2cc1O (stereo unspecified) = 6.41
